- assay.details: small-molecule microarray binders of probe aLefty2, primary screen, biochemical, biotinylated probe, 635/667 nm fluorescence (AID 1094);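 also: score merges spot fluorescence near 667 nm with spot signal-to-noise ratio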
- condition.details: higher = more signal
metric: composite z-score

test.smiles	result
[N-]=[N+]=Nc1ccccc1[C@H]1OC(c2ccc(OCCCO)cc2)=N[C@@]1(CCS(=O)(=O)c1ccccc1)C(N)=O	0.24
COc1cccc(-c2cccc(=O)o2)c1	0.716
COC(=O)C(CC#Cc1ccc2c(c1)[C@]1(C(=O)N2)[C@H](C(=O)Nc2nc3ccccc3s2)[C@H]2C(=O)O[C@H](c3ccccc3)[C@H](c3ccccc3)N2[C@@H]1c1ccccc1OCCO)C(=O)OC	0.0293
COC(=O)[C@@]1(Cc2ccccc2)N=C(c2ccc(OCCCO)cc2)O[C@H]1c1ccccc1	0.116

----------
// reported z-score for each item listed
- assay.details: S. cerevisiae growth modulation with rapamycin, primary screen, strain BY4716, OD600, 96 h (AID 1091); also: test concentration not given here
- condition.details: higher = more signal, called active from +8 up or from −8 down
metric: z-score

>>> print(df.to_string())
                                   compound  result
0  COCCCNC(=O)[C@@H]1c2ccccc2C(=O)N(Cc2ccccc2Cl)[C@H]1c1ccc(CO)cc1   -0.59
1  COc1cc(C(O)C2C=CC3C(=O)NC(=O)C3N2Nc2ccccn2)cc(OC)c1OC (centres undefined)    0.42
2  CCOC(=O)C1=CC[C@@H](c2ccccc2)N(S(=O)(=O)c2ccc(C)cc2)[C@H]1c1ccccc1C    -0.3
3  O=C1c2ccccc2[C@](Cc2ccccc2I)(C(=O)NCCN2CCOCC2)[C@H](c2ccc(CO)cc2)N1Cc1ccccc1Cl   -1.04

----------
// reported composite z-score for each item listed
- Test system: Fibrinogen (Alexa647-labelled)
- assay.details: fibrinogen binders on compound microarrays, profiling panel, artefact control for SMM control-protein annotation, biochemical, small-molecule microarray, 635/667 nm fluorescence (AID 1131);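 also: z-score merges 667 nm fluorescence with per-spot signal-to-noise over triplicate slides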
- condition.details: fibrinogen-A647 binding fluorescence, higher = more signal

test.smiles	composite z-score
CC(C)NC(=O)[C@@]1(C)c2ccccc2C(=O)N(Cc2cc(C(F)(F)F)cc(C(F)(F)F)c2)[C@H]1c1ccc(CO)cc1	-0.285
COCCOC(=O)N1C(=O)[C@@]2(c3ccccc31)[C@H](c1ccc(O)cc1)N1[C@H](c3ccccc3)[C@H](c3ccccc3)OC(=O)[C@H]1[C@@H]2C(=O)Nc1nc2ccccc2s1	0.961
COc1cc2c(cc1OC)CN(C(=O)[C@@H]1[C@H]3C(=O)O[C@H](c4ccccc4)[C@H](c4ccccc4)N3[C@H](c3ccc(O)cc3)[C@@]13C(=O)Nc1ccccc13)CC2	0.962

----------
- test.system: Torsin-1A-interacting protein 2 (Homo sapiens) (UniProt Q8NFQ8)
- Sequence (Q8NFQ8 whole entry, looked up): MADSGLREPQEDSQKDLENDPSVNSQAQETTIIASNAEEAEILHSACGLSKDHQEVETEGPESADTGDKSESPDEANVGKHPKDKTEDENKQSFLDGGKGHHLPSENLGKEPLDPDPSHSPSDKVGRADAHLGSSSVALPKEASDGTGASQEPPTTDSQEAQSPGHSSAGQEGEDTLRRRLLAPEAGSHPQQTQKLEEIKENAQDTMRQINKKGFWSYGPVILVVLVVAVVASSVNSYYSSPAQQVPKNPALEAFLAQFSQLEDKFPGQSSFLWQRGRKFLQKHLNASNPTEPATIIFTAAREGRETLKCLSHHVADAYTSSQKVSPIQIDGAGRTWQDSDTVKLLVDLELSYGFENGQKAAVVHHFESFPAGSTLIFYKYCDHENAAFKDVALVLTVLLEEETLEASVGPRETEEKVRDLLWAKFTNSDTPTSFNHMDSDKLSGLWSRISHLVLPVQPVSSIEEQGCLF
- assay.details: LULL1 binders on small-molecule microarray, primary screen, cell lysate, human LULL1 lysate, 635/667 nm fluorescence (AID 1092);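 also: probe is lysate of COS7 cells overexpressing human LULL1; score merges per-feature 667 nm fluorescence with signal-to-noise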
- condition.details: hLULL1 lysate binding, 635 nm fluorescence, higher = more signal

molecule	composite z-score
Cc1ccc(S[C@]2(C(=O)NC3CC3)CC(=O)N(Cc3ccccc3)[C@@H]2c2ccc(CO)cc2I)cc1	2.35
CC1(C)[C@@H]2CC(C(O)C3C=CC4C(=O)N(Cc5ccccc5)C(=O)C4N3n3cnnc3)=C[C@H]1C2 (some centres undefined)	3.12
O=C(OCc1ccccc1)C1=CCC2c3[nH]c4ccccc4c3C(=O)C1N2S(=O)(=O)c1ccccc1[N+](=O)[O-] (centres undefined)	3.57
CC(C)C(O)C1C=CC2C(=O)NC(=O)C2N1Nc1ccc(Cl)cc1Cl (centres undefined)	3.18
CC(C)C[C@@H]1NC(=O)[C@H](C(C)C)NC(=O)[C@@]23C(=O)N[C@@H](Cc4ccccc4)C2[C@H](C)[C@@]2(C)O[C@H]2C3/C=C/CC/C=C/CNC1=O (some centres undefined)	2.27
C[C@H]1C2[C@H](Cc3ccccc3)NC(=O)[C@]23C(=O)N[C@H](Cc2ccccc2)C(=O)N2CCC[C@H]2C(=O)NC/C=C\C/C=C/C3[C@@H]2O[C@]12C (some centres undefined)	0.392
O=C(c1ccccc1)N1Cc2ccccc2C[C@@]2(COC(c3ccc(OCCCO)cc3)=N2)C1=O	3.39
COCCOC(=O)N1C(=O)[C@@]2(c3cc(C#CCC(C(=O)OC)C(=O)OC)ccc31)[C@H](c1ccccc1OCCO)N1[C@H](c3ccccc3)[C@H](c3ccccc3)OC(=O)[C@H]1[C@@H]2C(=O)N1CCN(c2ncccn2)CC1	3.09
CCCCCN1CC=CC23O[C@@H]4C=CCCOC(=O)C4[C@H]2C(=O)N(CCCCCO)[C@@H]3C1=O (some centres undefined)	2.3
CC(C)[Si]1(C(C)C)O[C@@H](c2ccccc2)c2cc(-c3ccc(-c4ccc(Cl)c(Cl)c4)o3)nc(-c3ccccc3)c21	1.22
NC(=O)NCC#Cc1ccc2c(c1)[C@]1(C(=O)N2)[C@H](C(N)=O)[C@H]2C(=O)O[C@H](c3ccccc3)[C@H](c3ccccc3)N2[C@@H]1c1ccc(O)cc1	3.6
COc1ccc(CCNC(=O)[C@@]2(Sc3ccc(C)cc3)CC(=O)N(C(C)C)[C@@H]2c2ccc(CO)cc2I)cc1	0.468
CN(C)C(=O)[C@]1(Cc2ccccc2N=[N+]=[N-])N=C(c2ccc(OCCCO)cc2)O[C@@H]1c1ccccc1N=[N+]=[N-]	3.2
CCCCCCc1nc(-c2ccc(OC)nc2)cc2c1[Si](C(C)C)(C(C)C)O[C@H]2c1ccccc1	-0.4

----------
- test.system: E3 ubiquitin-protein ligase XIAP (Homo sapiens) (UniProt P98170)
- Sequence (P98170 whole entry, looked up): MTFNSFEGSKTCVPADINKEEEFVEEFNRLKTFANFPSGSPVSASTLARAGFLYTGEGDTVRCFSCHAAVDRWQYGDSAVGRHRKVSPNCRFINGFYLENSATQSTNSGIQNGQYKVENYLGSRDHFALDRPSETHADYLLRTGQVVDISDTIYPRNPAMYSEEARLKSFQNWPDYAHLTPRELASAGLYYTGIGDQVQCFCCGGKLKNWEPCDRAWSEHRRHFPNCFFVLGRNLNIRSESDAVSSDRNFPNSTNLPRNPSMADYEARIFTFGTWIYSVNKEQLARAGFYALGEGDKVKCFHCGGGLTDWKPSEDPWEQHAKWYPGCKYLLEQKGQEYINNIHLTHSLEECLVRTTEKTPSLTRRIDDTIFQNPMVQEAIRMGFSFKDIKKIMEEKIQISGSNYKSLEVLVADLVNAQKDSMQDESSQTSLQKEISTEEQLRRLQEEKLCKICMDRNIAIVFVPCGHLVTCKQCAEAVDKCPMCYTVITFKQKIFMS
- assay.details: XIAP binders, primary screen, biophysical, small-molecule microarray, fluorescence 635 nm (AID 1181);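 also: score merges 667 nm emission and signal to noise over triplicate slides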
- condition.details: small-molecule microarray binding, higher = more signal
Response field class: enum, chosen by comparing composite z-score against low interval = under -0.1, middle interval = from -0.1 up to -0.0009, high interval = -0.0009 and over

molecule	assigned.label
C=C[C@H](CO[Si](CC)(CC)CC)N(Cc1ccc(OC(C)=O)c(OC)c1)S(=O)(=O)c1ccc(Br)cc1	high interval
COc1ccc(CCNC(=O)[C@@]2(C)c3ccccc3C(=O)N(C(C)C)[C@H]2c2ccc(CO)cc2)cc1	low interval
COCCOC(=O)N1C(=O)[C@@]2(c3cc(C#Cc4ccc(OC)cc4)ccc31)[C@H](c1ccc(OCCO)cc1)N1[C@H](c3ccccc3)[C@H](c3ccccc3)OC(=O)[C@H]1[C@@H]2C(=O)N1CCN(c2ncccn2)CC1	high interval
C=CC(=C)[C@H]1Oc2ccccc2S(=O)(=O)N2CCC[C@@H]12	middle interval
Cc1ccc(S[C@]2(C(=O)NCCCN(C)C)CC(=O)N(Cc3ccccc3C(F)(F)F)[C@@H]2c2ccc(CO)cc2)cc1	low interval
COC(=O)[C@@]1(Cc2ccc(F)cc2)[C@H]2c3cc(C(=O)N(C)C)n(Cc4ccccc4)c3C[C@H]2CN1C(=O)c1ccccc1	low interval
COC(=O)c1c(CC[C@@H](CO)NC(=O)NCCn2cc(C3(O)CCCC3)nn2)oc(C(C)=O)c1C(=O)OC	middle interval
CC1(C)C2C=C(C(O)C3C=CC4C(=O)NC(=O)C4N3Nc3ccc(Cl)cc3Cl)C[C@@H]1C2 (some centres undefined)	middle interval
C=C(CCCC)C(=O)CC[C@@H](OC(=O)c1ccccc1-c1ccccc1C(=O)O)c1ccc(OCCO)cc1	low interval
Cc1ccccc1C(O)C1C=CC2C(=O)N(c3ccccc3)C(=O)C2N1Nc1ccc(C(C)C)cc1 (centres undefined)	high interval
CN(C)C(=O)[C@@]1(CCS(=O)(=O)c2ccccc2)COC(c2ccc(OCCCO)cc2)=N1	middle interval
CCC[C@@H]1C[C@@]1(CCC)[C@@H](NS(=O)(=O)c1cccc2cccnc12)c1ccc(Cl)cc1	high interval
COC(=O)C(CC#Cc1ccc2c(c1)[C@]1(C(=O)N2)[C@H](c2ccc(OCCO)cc2)N2[C@H](c3ccccc3)[C@H](c3ccccc3)OC(=O)[C@H]2[C@@H]1C(=O)Nc1nc2ccccc2s1)C(=O)OC	low interval
COc1ccc(C#Cc2ccc3c(c2)[C@]2(C(=O)N3)[C@H](C(=O)Nc3nc4ccccc4s3)[C@H]3C(=O)O[C@H](c4ccccc4)[C@H](c4ccccc4)N3[C@@H]2c2ccc(O)cc2)cc1	high interval
Cc1ccc(S[C@]2(C(=O)NCCCN(C)C)CC(=O)N(Cc3cc(C(F)(F)F)cc(C(F)(F)F)c3)[C@@H]2c2ccc(CO)cc2I)cc1	middle interval
CCCc1cc2c(n1Cc1cc(F)cc(F)c1)C(C)C1CN(C(=O)c3ccccc3)C(C)(C(=O)OC)C21 (centres undefined)	high interval
C=C(CC1([C@@H](NP(=O)(c2ccccc2)c2ccccc2)[C@H]2C[C@@H]2CCCC)CC1)c1ccccc1	low interval
[N-]=[N+]=NCc1ccccc1[C@@H]1OC(c2ccc(OCCCO)cc2)=N[C@]1(Cc1ccccc1)C(N)=O	high interval
CCOC(=O)C1=CC[C@@H](c2ccccc2)N(S(=O)(=O)c2ccc(C)cc2)[C@H]1c1ccccc1C	middle interval
Cc1ccc(N2C(=O)c3ccccc3[C@@H](C(=O)NC3CC3)[C@@H]2c2ccc(CO)cc2)nc1	low interval
C[N+](C)(C)CCCC[C@@H]1NC(=O)[C@H]2C[C@@H](C(=O)NCCCCCCNC(=O)CS)[C@@H](c3cccc(OCCO)c3)N2C1=O	low interval
COc1cc2c(cc1OC)CN(C(=O)[C@H]1[C@@H]3C(=O)O[C@@H](c4ccccc4)[C@@H](c4ccccc4)N3[C@@H](c3ccc(O)cc3)[C@]13C(=O)Nc1ccc(C#CCCO)cc13)CC2	low interval
COC(=O)C(CC#Cc1ccc2c(c1)[C@]1(C(=O)N2)[C@H](c2ccc(OCCO)cc2)N2[C@H](c3ccccc3)[C@H](c3ccccc3)OC(=O)[C@H]2[C@@H]1C(=O)N1CCc2cc(OC)c(OC)cc2C1)C(=O)OC	low interval
CC(=O)n1cc(C(O)C2C=CC3C(=O)N(c4ccccc4)C(=O)C3N2Nc2ccc([N+](=O)[O-])cc2)c2ccccc21 (centres undefined)	middle interval
C=C(COC)/C(=C/C[C@H](OC(C)=O)c1ccc(CO)o1)c1cc(C(=O)OC)ccc1OC	high interval
COc1cccc(-c2cccc(=O)o2)c1	high interval
C=CCNC(=O)[C@@H]1[C@H]2C(=O)O[C@H](c3ccccc3)[C@H](c3ccccc3)N2[C@H](c2ccccc2OCCO)[C@@]12C(=O)N(C(=O)OCCOC)c1ccccc12	middle interval
